These entries and their values trace back to ChEMBL document CHEMBL5223106.

- Test: Cytotoxicity against human HepG2 cells assessed as cell growth inhibition
- Format: toxicity, cell-based
Parameter: IC50

[
  {
    "Smi": "CC(C)(C)c1cc(NC(=O)c2ccc(S(=O)(=O)N3CCCC3)cc2)n[nH]1",
    "Observed value": "> 100 µM"
  }
]

* * *

- Experimental target: Serine/threonine-protein kinase 25 (Homo sapiens)
- Sequence (O00506 whole entry): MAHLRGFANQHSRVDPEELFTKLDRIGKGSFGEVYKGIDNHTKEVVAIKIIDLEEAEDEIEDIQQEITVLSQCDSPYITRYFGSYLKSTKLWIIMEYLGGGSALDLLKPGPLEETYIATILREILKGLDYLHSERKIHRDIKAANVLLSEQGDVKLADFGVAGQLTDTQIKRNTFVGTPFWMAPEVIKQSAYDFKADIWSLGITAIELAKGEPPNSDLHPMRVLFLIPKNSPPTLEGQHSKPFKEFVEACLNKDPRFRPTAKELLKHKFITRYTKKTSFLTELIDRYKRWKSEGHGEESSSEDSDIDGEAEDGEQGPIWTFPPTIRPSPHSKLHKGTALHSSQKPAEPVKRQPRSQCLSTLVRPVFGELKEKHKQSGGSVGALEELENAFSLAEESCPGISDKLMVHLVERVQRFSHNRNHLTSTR
- Test: Inhibition of STK25 (unknown origin) by FRET assay
pIC50: −log10 of the molar value.
Listing of recorded pIC50 by entry.

[
  {
    "Smi": "CC(C)(C)c1cc(NC(=O)c2ccc(S(=O)(=O)NC3CCCC3)cc2)n[nH]1",
    "pIC50": 6.06
  },
  {
    "Smi": "CCCCOc1ccc(C(=O)Nc2cc(C(C)(C)C)[nH]n2)cc1",
    "pIC50": 6.21
  },
  {
    "Smi": "CC(C)(C)c1cc(NC(=O)c2ccc(C(=O)N3CCCC3)cc2)n[nH]1",
    "pIC50": 5.29
  },
  {
    "Smi": "CC(C)(C)c1cc(NC(=O)c2ccc(S(=O)(=O)N3CCCC3)cc2)n[nH]1",
    "pIC50": 6.64
  }
]
